assaySummary: NFAT Signaling Pathway (AID 444);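 also: carbachol stimulus at about its EC50 of 1 µM final; % is scaled to controls: 0 for no effect and ±100 for the full control effect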
testParameters: Jurkat NFAT-bla M1, carbachol, beta-lactamase ratio, 5 h; at 17.2 µM (top of the series)
Inconclusive results are not listed.
propertyMeasured: activity change, negative = inhibition (%)
Number in %, nothing else.

Q) Name the recorded activity change, negative = inhibition for NCC(CC(=O)O)c1ccc(Cl)cc1 (stereo not drawn) .
A) 12.1

Q) Name the recorded activity change, negative = inhibition for CC(=O)[C@H]1CC[C@H]2[C@@H]3CC[C@H]4C[C@H](O)CC[C@]4(C)[C@H]3C(=O)C[C@]12C .
A) -29.1

Q) Name the recorded activity change, negative = inhibition for CNCC(O)c1ccc(O)cc1 (stereo not drawn) .
A) 19.4

----------
Tested on: MKL-1
assaySummary: qHTS assay to identify novel small-molecules to repurpose for Merkel cell carcinoma treatment (AID 1296009); also: nearly all actives have a fitted effect of over 60% in size
testParameters: MCC and control cell lines, CellTiter-Glo viability, 72 h; series mostly up to 46 µM
Records with an inconclusive call do not appear. The source made the active and inactive calls. Calls follow the shape of the dose curve; as a rule, active = well fitted inhibition curve with a large enough effect; inconclusive = small, poorly fitted or top-dose-only effect; inactive = flat fitted curve, though single readings scatter.
# valid calls are t (active), f (inactive); nothing else

Q) Tell me the assay call for Cc1ccc2c(c1)C1CN(C)CCC1N2 (centres undefined) please.
A) f

Q) Tell me the assay call for Clc1cccc(N2CCNCC2)c1 please.
A) f

Q) Tell me the assay call for CC(CCc1ccccc1)NC(C)C(O)c1ccc(O)cc1 (centres undefined) please.
A) f

Q) Tell me the assay call for CN(C)[C@@H]1C(=O)C(C(N)=O)=C(O)[C@@]2(O)C(=O)C3=C(O)c4c(O)cccc4[C@@](C)(O)[C@H]3C[C@@H]12 please.
A) f

Q) Tell me the assay call for CCC(COC(=O)c1cc(OC)c(OC)c(OC)c1)(c1ccccc1)N(C)C (centres undefined) please.
A) f

Q) Tell me the assay call for O=P1(NCCCl)OCCCN1CCCl (centres undefined) please.
A) f

Q) Tell me the assay call for C[C@@H]1[C@@H](CC(C[C@H]2O[C@@H]3O[C@]4(C)CC[C@@H]5[C@H](C)CC[C@@H]([C@H]2C)[C@@]35OO4)C[S+](=O)([O-])c2ccc(COC(=O)N(C)C)cc2)O[C@@H]2O[C@]3(C)CC[C@H]4[C@H](C)CC[C@@H]1[C@@]24OO3 (some centres undefined) please.
A) t

Q) Tell me the assay call for C=CCN1CC[C@]23c4c5ccc(O)c4O[C@H]2C(=O)CC[C@@]3(O)[C@H]1C5 please.
A) f

Q) Tell me the assay call for CCCN1CCC[C@@H]2Cc3[nH]ncc3C[C@H]21 please.
A) f

----------
assaySummary: qHTS Assay for Lipid Storage Modulators (AID 1519)
testParameters: Drosophila S3 cells, BODIPY lipid droplet/cell ratio, laser cytometry; measured here: cell count channel max response; cells loaded with oleic acid
Inconclusive results are not listed.
Note to self: values exactly at -20% are Criterion met. So max response at or above -20% is Criterion met, below is Criterion not met.

Q) Please check the record CN1C[C@H](CNC(=O)OCc2ccccc2)C[C@@H]2c3cccc4c3c(cn4C)C[C@H]21 and state if its max response is at or above -20%.
A) Criterion not met

Q) Please check the record CC(C)=CCOc1c2occc2cc2ccc(=O)oc12 and state if its max response is at or above -20%.
A) Criterion met

Q) Please check the record CC(C)CC(N(C)C)C1(c2ccc(Cl)cc2)CCC1 (stereo unspecified) and state if its max response is at or above -20%.
A) Criterion met

Q) Please check the record CN1CCN(C2=Nc3cc(Cl)ccc3Nc3ccccc32)CC1 and state if its max response is at or above -20%.
A) Criterion not met

Q) Please check the record O=P1(NCCCl)OCCCN1CCCl (stereo unspecified) and state if its max response is at or above -20%.
A) Criterion met

Q) Please check the record Fc1ccc(C(OCCN2CCN(CCCc3ccccc3)CC2)c2ccc(F)cc2)cc1 and state if its max response is at or above -20%.
A) Criterion met
